Entry source: patent US20240352133A1

ASSAYED SYSTEM: Recombinant human his-tagged IGF 1R extracellular domain protein (human) (UniProt P08069)
TEST: SPR, captured antibody, dissociation at pH 6
ENDPOINT: log10 of koff (log10 of the value in s⁻¹)
Hey, these are logged values: log10 of koff, s⁻¹ being the unit before logging.

Recorded results for 4 binders are shown here.
VRDN-03041 (antibody, V domains shown) VH: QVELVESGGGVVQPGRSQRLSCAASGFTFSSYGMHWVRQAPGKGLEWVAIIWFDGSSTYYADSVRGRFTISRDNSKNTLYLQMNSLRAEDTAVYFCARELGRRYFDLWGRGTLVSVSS VL: EIVLTQSPATLSLSPGERATLSCRASHSVSSYLAWYQQKPGQAPRLLIYDASKRATGIPARFSGSGSGTDFTLTISSLEPEDFAVYYCQQRSKWPPWTFGQGTKVESK = -4.44
VRDN-03100 (second entry of that label; VH and VL pair SEQ ID NO: 223) (antibody, V domains shown) VH: QVQLVESGGGVVQPGRSLRLSCAASGFTFSSYSMHWVRQAPGKGLEWVAIIWFDGSSKYYPGSVKGRFTISRDNSKNTLYLQMNSLRAEDTAVYYCARELGRRYFDIWGRGTLVTVSS VL: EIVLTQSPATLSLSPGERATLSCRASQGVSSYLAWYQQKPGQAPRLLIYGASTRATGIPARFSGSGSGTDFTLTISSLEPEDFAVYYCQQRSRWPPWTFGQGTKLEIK = -2.97
VRDN-03105 (antibody, V domains shown) VH: QVQLVESGGGVVQPGRSLRLSCAASGFTFSDHYMDWVRQAPGKGLEWVAIIWFDGSSKYYVDSVKGRFTISRDNSKNTLYLQMNSLRAEDTAVYYCARELGRRYFDIWGRGTLVTVSS VL: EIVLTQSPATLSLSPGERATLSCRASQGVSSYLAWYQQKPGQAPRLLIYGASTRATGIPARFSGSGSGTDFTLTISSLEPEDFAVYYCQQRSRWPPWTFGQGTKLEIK = -3.55
VRDN-03047 (antibody, V domains shown) VH: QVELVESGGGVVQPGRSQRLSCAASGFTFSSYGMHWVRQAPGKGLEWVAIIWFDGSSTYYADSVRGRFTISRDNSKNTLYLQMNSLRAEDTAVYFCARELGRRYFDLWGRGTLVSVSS VL: EIVLTQSPATLSLSPGERATLSCRASQSVSSYHAWYQQKPGQAPRLLIYDASKRATGIPARFSGSGSGTDFTLTISSLEPEDFAVYYCQQRSKWPPWTFGQGTKVESK = -3.53

Now look at this entry.
Query VRDN-03114 (antibody, V domains shown) VH: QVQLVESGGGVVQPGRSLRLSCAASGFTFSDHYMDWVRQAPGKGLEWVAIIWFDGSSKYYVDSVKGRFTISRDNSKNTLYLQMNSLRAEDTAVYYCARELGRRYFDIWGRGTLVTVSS VL: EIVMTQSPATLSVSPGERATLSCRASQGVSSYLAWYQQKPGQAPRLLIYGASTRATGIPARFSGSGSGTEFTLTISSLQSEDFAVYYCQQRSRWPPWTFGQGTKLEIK yields log10 of koff of -5.16
